# IC50 per record follows
tested on: HL-60; test: Cytotoxicity against human HL60 cells after 72 hrs by MTT assay; assay type: functional, cell-based; conditions: HL-60, 72 h

>  <compound>
C[C@]12CC[C@H]3[C@@H](CC[C@@H]4C[C@@H](O)CC[C@@]43C=O)[C@@]1(O)CC[C@@H]2c1ccc(=O)oc1

>  <tested_on>
HL-60

>  <IC50>
< 0.01 µg/mL

$$$$
>  <compound>
C[C@]12CC[C@H](O)C[C@H]1CC[C@@H]1[C@@H]2CC[C@]2(C)[C@@H](c3ccc(=O)oc3)CC[C@]12O

>  <tested_on>
HL-60

>  <IC50>
< 0.01 µg/mL

$$$$
>  <compound>
C[C@]12CC[C@H](OC=O)C[C@H]1CC[C@@H]1[C@@H]2CC[C@]2(C)[C@@H](c3ccc(=O)oc3)C[C@H]3O[C@]132

>  <tested_on>
HL-60

>  <IC50>
1 µg/mL

$$$$
>  <compound>
CC(=O)O[C@H]1[C@H]2O[C@]23[C@@H]2CC[C@@H]4C[C@@H](O)CC[C@]4(C)[C@H]2C[C@@H](O)[C@]3(C)[C@H]1c1ccc(=O)oc1

>  <tested_on>
HL-60

>  <IC50>
< 0.01 µg/mL

$$$$
>  <compound>
C[C@]12[C@H](CC[C@@H]3[C@@H]1CC[C@]1(C)[C@@H](c4ccc(=O)oc4)CC[C@]31O)C[C@@H](O)C[C@H]2O

>  <tested_on>
HL-60

>  <IC50>
< 0.01 µg/mL

$$$$
>  <compound>
C[C@]12CC[C@H]3[C@@H](CC[C@@H]4C[C@@H](O)CC[C@@]43C=O)[C@]13OC3[C@H](O)[C@@H]2c1ccc(=O)oc1 (stereo partly specified)

>  <tested_on>
HL-60

>  <IC50>
3 µg/mL

$$$$

====

test system: HL-60; assay: Cytotoxicity against human HL60 cells after 72 hrs by MTT assay; assay type: functional, cell-based; details: HL-60, 72 h

>  <chemical_structure>
CC(=O)O[C@H]1C[C@]2(O)[C@@H]3CC[C@]4(O)C[C@@H](O)CC[C@]4(C)[C@H]3CC[C@]2(C)[C@H]1c1ccc(=O)oc1

>  <IC50>
< 0.01 µg/mL

$$$$
>  <chemical_structure>
C[C@]12CC[C@H](O)C[C@@]1(O)CC[C@@H]1[C@@H]2CC[C@]2(C)[C@@H](c3ccc(=O)oc3)CC[C@]12O

>  <IC50>
< 0.01 µg/mL

$$$$
>  <chemical_structure>
CC(=O)O[C@H]1C[C@]2(O)[C@@H]3CC[C@@H]4C[C@@H](O)CC[C@]4(C)[C@H]3CC[C@]2(C)[C@H]1c1ccc(=O)oc1

>  <IC50>
< 0.01 µg/mL

$$$$

# credit: ChEMBL document CHEMBL1155761
